# Tested on: Lactobacterium
# assayRemarks: Stimulation of growth: enumeration of lactobacilli in vitro in human faecal homogenate / WC broth
# Format: cell-based, Lactobacillus spp
# conditionNotes: 1% test substance, incubated up to 24 hours
propertyMeasured: Bacterial numbers (CFU/ml)

| molecule | Bacterial numbers (CFU/ml) |
| --- | --- |
| CC[C@H](CC[C@@H](C)[C@H]1CC[C@H]2[C@@H]3CC=C4C[C@@H](O)CC[C@]4(C)[C@H]3CC[C@]12C)C(C)C | 4.4 × 10^5 CFU/ml |
| CC[C@H](CC[C@@H](C)[C@H]1CC[C@H]2[C@@H]3CC[C@H]4C[C@@H](O)CC[C@]4(C)[C@H]3CC[C@]12C)C(C)C | 4.4 × 10^5 CFU/ml |
| CCCCCCCCCCCCCCCC(=O)O[C@H]1CC[C@@]2(C)C(=CC[C@H]3[C@@H]4CC[C@H]([C@H](C)CC[C@@H](CC)C(C)C)[C@@]4(C)CC[C@@H]32)C1 [C7, β-Sitosterolpalmitate] | 4.4 × 10^5 CFU/ml |

From here, focus on the item given below.
Enquiry: // returns reported Bacterial numbers (CFU/ml) for input CCCCCCCCCCCCCCCCCC(=O)O[C@H]1CC[C@@]2(C)[C@@H](CC[C@@H]3[C@@H]2CC[C@]2(C)[C@@H]([C@H](C)CC[C@@H](CC)C(C)C)CC[C@@H]32)C1 [C8, β-Sitostanolstearate]
Return: 4.5 × 10^5 CFU/ml
